# measurement-notes: Cytotoxicity, two-dimensional (monolayer) assay
# Format: cell-based
# condition-parameters: human, HEK-293 cells, 2D monolayer; HEK-293 monolayer; 10 mins incubation; necrotic cells by PI/Hoechst 33342 imaging; Table S1 series (with LMB033); ± SEM, n=4; read-out: IC50, cytotoxic activity, two-dimensional assay
Non-standard residues stand in square brackets, D forms with d. Residues, ends and D or L forms follow the SMILES beside them. Orn = NCCC[C@H](N)C(=O)O
recorded-metric: IC50 at 10 min (µM)
The reply should contain only the number, in µM.

Prompt: In one line, give reported IC50 at 10 min of the entry CC(C)C[C@@H]1NC(=O)[C@H](CCCN)NC(=O)[C@H](C(C)C)NC(=O)[C@@H]2CCCN2C(=O)[C@@H](Cc2ccccc2)NC(=O)[C@H](CC(C)C)NC(=O)[C@H](CCCN)NC(=O)[C@H](C(C)C)NC(=O)[C@@H]2CCCN2C(=O)[C@@H](Cc2ccccc2)NC1=O [Gramicidin S, gramicidin S] (cyclo(V[Orn]L[dF]PV[Orn]L[dF]P)) .
Response: 12.9

====

# measurement-notes: Cytotoxicity, two-dimensional (monolayer) assay
# Assay type: cell-based
# condition-parameters: human, HEK-293 cells, 2D monolayer; HEK-293 monolayer; 72 hrs incubation; necrotic cells by PI/Hoechst 33342 imaging; Table S1 series (with LMB033); ± SEM, n=4; read-out: IC50, cytotoxic activity, two-dimensional assay
Non-standard residues stand in square brackets, D forms with d. Residues, ends and D or L forms follow the SMILES beside them. Orn = NCCC[C@H](N)C(=O)O
recorded-metric: IC50 at 72 h (µM)
The reply should contain only the number, in µM.

Prompt: In one line, give reported IC50 at 72 h of the entry CC(C)C[C@@H]1NC(=O)[C@H](CCCN)NC(=O)[C@H](C(C)C)NC(=O)[C@@H]2CCCN2C(=O)[C@@H](Cc2ccccc2)NC(=O)[C@H](CC(C)C)NC(=O)[C@H](CCCN)NC(=O)[C@H](C(C)C)NC(=O)[C@@H]2CCCN2C(=O)[C@@H](Cc2ccccc2)NC1=O [Gramicidin S, gramicidin S] (cyclo(V[Orn]L[dF]PV[Orn]L[dF]P)) .
Response: 8.4

====

# measurement-notes: Cytotoxicity, three-dimensional (spheroid) assay
# Assay type: cell-based
# condition-parameters: human; HEK-293 spheroids; 10 mins incubation; calcein-AM/PI/Hoechst 33342 confocal imaging; Table S3 (with LMB033); ± SEM, n=5; read-out: IC50, cytotoxic activity, three-dimensional (spheroid) assay
Non-standard residues stand in square brackets, D forms with d. Residues, ends and D or L forms follow the SMILES beside them. Orn = NCCC[C@H](N)C(=O)O
recorded-metric: IC50 at 10 min (µM)
The reply should contain only the number, in µM.

Prompt: In one line, give reported IC50 at 10 min of the entry CC(C)C[C@@H]1NC(=O)[C@H](CCCN)NC(=O)[C@H](C(C)C)NC(=O)[C@@H]2CCCN2C(=O)[C@@H](Cc2ccccc2)NC(=O)[C@H](CC(C)C)NC(=O)[C@H](CCCN)NC(=O)[C@H](C(C)C)NC(=O)[C@@H]2CCCN2C(=O)[C@@H](Cc2ccccc2)NC1=O [Gramicidin S, gramicidin S] (cyclo(V[Orn]L[dF]PV[Orn]L[dF]P)) .
Response: 14.3
